The measurements presented in this section are drawn from patent US11260115B1.

molecular target: HLA-A*02:01 (Homo sapiens, UniProt P04439, D140Y/D185E/D98H/E176V/E277Q/G131W/G231S/I119V/I121R/I166T/I218V/L300P/L318F/N151K/N90K/P208A/P217A/Q86G/Q94H/R138H/R169H/T345S); assay: MHC binding assay (UV-ligand exchange, β2m ELISA, peptide exchange yield); conditions: binding to HLA-A*02:01
readout-kind: Peptide Exchange (MHC class I binding score, peptide exchange yield)

- substance: "334 (YLLEEKIASL; listed as Homo sapiens) [compound 334]"
  measurement: "“+++” (>50 = +++)"
- substance: "62 (GIIDGSPRL; listed as Homo sapiens) [compound 62]"
  measurement: "“+++” (>50 = +++)"
- substance: "46 (YIIDSAQAV; listed as Homo sapiens) [compound 46]"
  measurement: "“+++” (>50 = +++)"
- substance: "242 (ILLGIQELL; listed as Homo sapiens) [compound 242]"
  measurement: "“+++” (>50 = +++)"
- substance: "18 (LLGEFSIKM; listed as Homo sapiens) [compound 18]"
  measurement: "“+++” (>50 = +++)"
- substance: "273 (VLGEYSYLL; listed as Homo sapiens) [compound 273]"
  measurement: "“+++” (>50 = +++)"
- substance: "292 (AAALIIHHV; listed as Homo sapiens) [compound 292]"
  measurement: "“+++” (>50 = +++)"
- substance: "317 (NLLAHIWAL; listed as Homo sapiens) [compound 317]"
  measurement: "“+++” (>50 = +++)"
- substance: "194 (YLDNVLAEL; listed as Homo sapiens) [compound 194]"
  measurement: "“++++” (>75% = ++++)"
- substance: "164 (SVHKGFAFV; listed as Homo sapiens) [compound 164]"
  measurement: "“+++” (>50 = +++)"
- substance: "195 (YLGGFALSV; listed as Homo sapiens) [compound 195]"
  measurement: "“++++” (>75% = ++++)"
- substance: "79 (GLQAKIQEA; listed as Homo sapiens) [compound 79]"
  measurement: "“+++” (>50 = +++)"
- substance: "240 (ILARDILEI; listed as Homo sapiens) [compound 240]"
  measurement: "“+++” (>50 = +++)"
- substance: "112 (KTLDVDATYEI; listed as Homo sapiens) [compound 112]"
  measurement: "“+++” (>50 = +++)"
- substance: "308 (SLYDVSRMYV; listed as Homo sapiens) [compound 308]"
  measurement: "“++++” (>75% = ++++)"
- substance: "139 (NLTDVVEKL; listed as Homo sapiens) [compound 139]"
  measurement: "“+++” (>50 = +++)"
- substance: "262 (SLWNAGTSV; listed as Homo sapiens) [compound 262]"
  measurement: "“+++” (>50 = +++)"
- substance: "52 (FLVETGFLHV; listed as Homo sapiens) [compound 52]"
  measurement: "“++++” (>75% = ++++)"
- substance: "128 (LLSEEEYHL; listed as Homo sapiens) [compound 128]"
  measurement: "“+++” (>50 = +++)"

* * *

biological target: HLA-A*02:01 (Homo sapiens, UniProt P04439, D140Y/D185E/D98H/E176V/E277Q/G131W/G231S/I119V/I121R/I166T/I218V/L300P/L318F/N151K/N90K/P208A/P217A/Q86G/Q94H/R138H/R169H/T345S); test: MHC binding assay (UV-ligand exchange, β2m ELISA, peptide exchange yield); settings: binding to HLA-A*02:01
readout-kind: Peptide Exchange (MHC class I binding score, peptide exchange yield)

- substance: "154 (SLLAELHVLTV; listed as Homo sapiens) [compound 154]"
  measurement: "“++++” (>75% = ++++)"
- substance: "125 (LLLEIGEVGKLFV; listed as Homo sapiens) [compound 125]"
  measurement: "“+++” (>50 = +++)"
- substance: "36 (FILTHVDQL; listed as Homo sapiens) [compound 36]"
  measurement: "“++++” (>75% = ++++)"
- substance: "370 (SIFASPESV; listed as Homo sapiens) [compound 370]"
  measurement: "“+++” (>50 = +++)"

* * *

target: HLA-A*02:01 (Homo sapiens, UniProt P04439, D140Y/D185E/D98H/E176V/E277Q/G131W/G231S/I119V/I121R/I166T/I218V/L300P/L318F/N151K/N90K/P208A/P217A/Q86G/Q94H/R138H/R169H/T345S); experiment: MHC binding assay (UV-ligand exchange, β2m ELISA, peptide exchange yield); details: binding to HLA-A*02:01
readout-kind: Peptide Exchange (MHC class I binding score, peptide exchange yield)

- substance: "333 (VTLEFPQLIRV; listed as Homo sapiens) [compound 333]"
  measurement: "“+++” (>50 = +++)"
- substance: "248 (KTVEPPISQV; listed as Homo sapiens) [compound 248]"
  measurement: "“++” (>20% = ++)"
- substance: "25 (ATYSGLESQSV; listed as Homo sapiens) [compound 25]"
  measurement: "“++” (>20% = ++)"
- substance: "57 (GLSEISLRL; listed as Homo sapiens) [compound 57]"
  measurement: "“++++” (>75% = ++++)"
- substance: "385 (YTIPLAIKL; listed as Homo sapiens) [compound 385]"
  measurement: "“+++” (>50 = +++)"
- substance: "341 (LLAELPASVHA; listed as Homo sapiens) [compound 341]"
  measurement: "“+++” (>50 = +++)"
- substance: "229 (FLLNLQNCHL; listed as Homo sapiens) [compound 229]"
  measurement: "“++++” (>75% = ++++)"
- substance: "271 (VIRNIVEAA; listed as Homo sapiens) [compound 271]"
  measurement: "“++” (>20% = ++)"
- substance: "148 (SIVASLITV; listed as Homo sapiens) [compound 148]"
  measurement: "“+++” (>50 = +++)"
- substance: "358 (FLTDYLNDL; listed as Homo sapiens) [compound 358]"
  measurement: "“+++” (>50 = +++)"
- substance: "294 (ALLDQLHTLL; listed as Homo sapiens) [compound 294]"
  measurement: "“++++” (>75% = ++++)"
- substance: "278 (YLDDLLPKL; listed as Homo sapiens) [compound 278]"
  measurement: "“+++” (>50 = +++)"
- substance: "216 (WLAGDVPAA; listed as Homo sapiens) [compound 216]"
  measurement: "“+++” (>50 = +++)"
- substance: "80 (VLIEDELEEL; listed as Homo sapiens) [compound 80]"
  measurement: "“++” (>20% = ++)"
- substance: "270 (TVLPVPPLSV; listed as Homo sapiens) [compound 270]"
  measurement: "“+++” (>50 = +++)"
- substance: "289 (ILEEQPMDMLL; listed as Homo sapiens) [compound 289]"
  measurement: "“+++” (>50 = +++)"
- substance: "32 (FIDKFTPPV; listed as Homo sapiens) [compound 32]"
  measurement: "“++++” (>75% = ++++)"
- substance: "206 (HMQDVRVLL; listed as Homo sapiens) [compound 206]"
  measurement: "“+++” (>50 = +++)"
- substance: "127 (LLPTAPTTV; listed as Homo sapiens) [compound 127]"
  measurement: "“+++” (>50 = +++)"

* * *

biological target: HLA-A*02:01 (Homo sapiens, UniProt P04439, D140Y/D185E/D98H/E176V/E277Q/G131W/G231S/I119V/I121R/I166T/I218V/L300P/L318F/N151K/N90K/P208A/P217A/Q86G/Q94H/R138H/R169H/T345S); test: MHC binding assay (UV-ligand exchange, β2m ELISA, peptide exchange yield); settings: binding to HLA-A*02:01
readout-kind: Peptide Exchange (MHC class I binding score, peptide exchange yield)

- substance: "277 (VMILKLPFL; listed as Homo sapiens) [compound 277]"
  measurement: "“++” (>20% = ++)"
- substance: "354 (FIMDDPAGNSYL; listed as Homo sapiens) [compound 354]"
  measurement: "“+++” (>50 = +++)"
- substance: "2 (ALHRPDVYL; listed as Homo sapiens) [compound 2]"
  measurement: "“+++” (>50 = +++)"
- substance: "97 (LLFATQITL; listed as Homo sapiens) [compound 97]"
  measurement: "“++” (>20% = ++)"
- substance: "311 (LLVDVEPKV; listed as Homo sapiens) [compound 311]"
  measurement: "“+++” (>50 = +++)"
- substance: "86 (HLYPGAVTI; listed as Homo sapiens) [compound 86]"
  measurement: "“+++” (>50 = +++)"
- substance: "20 (ALVDPGPDFVV; listed as Homo sapiens) [compound 20]"
  measurement: "“+++” (>50 = +++)"
- substance: "228 (FLGGLSPGV; listed as Homo sapiens) [compound 228]"
  measurement: "“+++” (>50 = +++)"
- substance: "302 (ILQDLTFVHL; listed as Homo sapiens) [compound 302]"
  measurement: "“+++” (>50 = +++)"
- substance: "189 (VMLEMTPEL; listed as Homo sapiens) [compound 189]"
  measurement: "“+++” (>50 = +++)"
- substance: "34 (YLPYIFPNI; listed as Homo sapiens) [compound 34]"
  measurement: "“+++” (>50 = +++)"
- substance: "110 (LLFDHLEPMEL; listed as Homo sapiens) [compound 110]"
  measurement: "“+++” (>50 = +++)"
- substance: "72 (GLLDAGKMYV; listed as Homo sapiens) [compound 72]"
  measurement: "“+++” (>50 = +++)"
- substance: "380 (YLDRKLLTL; listed as Homo sapiens) [compound 380]"
  measurement: "“+++” (>50 = +++)"
- substance: "9 (ALCDTLITV; listed as Homo sapiens) [compound 9]"
  measurement: "“+++” (>50 = +++)"
- substance: "301 (AASPIITLV; listed as Homo sapiens) [compound 301]"
  measurement: "“+++” (>50 = +++)"
- substance: "74 (GLLRASFLL; listed as Homo sapiens) [compound 74]"
  measurement: "“++” (>20% = ++)"
- substance: "219 (ALLNLLESA; listed as Homo sapiens) [compound 219]"
  measurement: "“+++” (>50 = +++)"
- substance: "224 (AMEALVVEV; listed as Homo sapiens) [compound 224]"
  measurement: "“+++” (>50 = +++)"
- substance: "345 (YLIEPDVELQRI; listed as Homo sapiens) [compound 345]"
  measurement: "“+++” (>50 = +++)"
